Measurement target: Recombinant human Cbl-b (aa 36-427) (Homo sapiens (Human))
Sequence (Q13191 36-427): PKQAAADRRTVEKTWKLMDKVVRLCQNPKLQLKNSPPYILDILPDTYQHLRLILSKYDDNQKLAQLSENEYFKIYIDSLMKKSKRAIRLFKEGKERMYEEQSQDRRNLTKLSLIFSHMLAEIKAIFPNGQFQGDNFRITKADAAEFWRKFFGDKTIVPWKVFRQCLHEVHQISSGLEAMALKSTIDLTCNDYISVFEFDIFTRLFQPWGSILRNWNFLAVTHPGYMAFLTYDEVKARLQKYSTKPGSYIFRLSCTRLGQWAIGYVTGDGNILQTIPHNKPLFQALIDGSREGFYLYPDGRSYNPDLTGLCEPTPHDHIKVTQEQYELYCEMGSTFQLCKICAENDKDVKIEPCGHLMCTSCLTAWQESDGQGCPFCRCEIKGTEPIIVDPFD
Protocol text: Cbl-b Biochemical Assay (TR-FRET)
Stated conditions: read-out: TR-FRET hCbl-b IC50
pIC50: −log10 of the molar value.
Experimental endpoint: pIC50

Compound | Obs value
Cn1cnnc1-c1cc(C#N)ccc1-c1cc(C2CC2)nc(N2Cc3ccc(CNCC(C)(C)F)cc3C2=O)c1 [ALD-2] | ≥ 6.70
Cn1cnnc1-c1nccn1-c1cccc(N2Cc3c(cccc3C(F)(F)F)C2=O)c1 [AAA-8] | 4.30 to 5.00
C[C@@H](NCc1ccc2c(c1)C(=O)N(c1cc(-c3ccc(C#N)cc3-c3nncn3C)cc(C3CC3)n1)C2)C1CCC1 [AOJ-2] | ≥ 6.70
CC(=O)c1ccc2c(c1)C(=O)N(c1cc(-c3ccc(C#N)cc3-c3nncn3C)cc(C3CC3)n1)C2 [AJH-3] | ≥ 6.70
COCC1(NCc2ccc3c(c2)C(=O)N(c2cc(-c4ccc(C#N)cc4-c4nncn4C)cc(C4CC4)n2)C3)CCC1 [AJG-2] | ≥ 6.70
Cn1cnnc1-c1cc(F)ccc1-c1cc(C2CC2)nc(N2Cc3ccc(CO)cc3C2=O)c1 [AGH-2] | ≥ 6.70
C[C@H](NCC1CCC1)c1ccc2c(c1)C(=O)N(c1cc(-c3ccc(C#N)cc3-c3nncn3C)cc(C3CC3)n1)C2 [AKB-1] | ≥ 6.70
CCNc1cc(-c2ccccc2-c2nncn2C)cc(N2Cc3c(cc(CN4CCC(F)(F)[C@H](C)C4)cc3C(F)(F)F)C2=O)n1 [AU-2] | ≥ 6.70
CCn1cc(-c2nncn2C)c(-c2cccc(N3Cc4c(cccc4C(F)(F)F)C3=O)c2)n1 [AAF-9] | 4.30 to 5.00
CCNc1cc(-c2ccccc2-c2nncn2C)cc(N2Cc3c(cc(CN4CC(F)C4)cc3C(F)(F)F)C2=O)n1 [AG-1] | ≥ 6.70
CCOc1cc(-c2ccc(C#N)cc2-c2nncn2C)cc(N2Cc3ccc(CNCCOC)cc3C2=O)n1 [AHS-2] | ≥ 6.70
Cn1cnnc1-c1ccccc1-c1cccc(N2Cc3c(cccc3C(F)(F)F)C2=O)c1 [AAK-2] | 6.00 to 6.70
Cn1cnnc1-c1cc(C#N)ccc1-c1cc(C2CC2)nc(N2Cc3ccc(OC[C@@H](O)CO)cc3C2=O)c1 [AJM-3] | ≥ 6.70
CNC(=O)c1cc(-c2ccccc2-c2nncn2C)cc(N2Cc3c(cccc3C(F)(F)F)C2=O)c1 [Example O-3] | 4.30 to 5.00
CCNc1cc(-c2c(-c3nncn3C)cnn2C)cc(N2Cc3c(cc(CN4CCC5(CC5)C4)cc3C(F)(F)F)C2=O)n1 [ABC-7] | > 6.70

* * *

Measurement target: Recombinant human Cbl-b (aa 36-427) (Homo sapiens (Human))
Protocol text: Cbl-b Biochemical Assay (TR-FRET)
Stated conditions: read-out: TR-FRET hCbl-b IC50
Measured IC50, listed per entry.
Experimental endpoint: IC50

Molecule | Obs value
Cn1cnnc1-c1cc(F)ccc1-c1cc(C2CC2)nc(N2Cc3c(cc(COCC4(N)CCC4)cc3C(F)(F)F)C2=O)c1 | ≤ 200 nM
Cn1cnnc1-c1cc(C#N)ccc1-c1cc(C2CC2)nc(N2Cc3c(cc(CO)c(F)c3F)C2=O)c1 | ≤ 200 nM
CN(Cc1cc(F)c2c(c1)C(=O)N(c1cc(-c3ccc(C#N)cc3-c3nncn3C)cc(C3CC3)n1)C2)CC1(O)CCC1 | ≤ 200 nM
Cn1cnnc1-c1cnn(C)c1-c1cc(Cl)nc(N2Cc3c(cccc3C(F)(F)F)C2=O)c1 | 1000 to 10000 nM
Cn1cnnc1-c1cc(C#N)ccc1-c1cc(C2CC2)nc(N2Cc3ccc(CNC[C@H]4CCOC4)cc3C2=O)c1 | ≤ 200 nM
Cn1cnnc1-c1ccccc1-c1cccc(N2Cc3c(cc(CN4CC[C@@H](F)C4)cc3C(F)(F)F)C2=O)c1 | 200 to 1000 nM
CCNc1cc(-c2c(-c3nncn3C)cnn2C)cc(NC(=O)c2cc(OCCN3CCCC3)nc(C3CC3)n2)n1 | 200 to 1000 nM
COCCNCc1cc2c(c(C(F)(F)F)c1)CN(c1cccc(-c3ccc(C#N)cc3-c3nncn3C)c1)C2=O | ≤ 200 nM
Cn1cnnc1-c1cc(C#N)ccc1-c1cc(C2CC2)nc(N2Cc3ccc(CNCC4(F)COC4)cc3C2=O)c1 | ≤ 200 nM
C[C@H]1CCCN(Cc2ccc3c(c2)C(=O)N(c2cc(-c4ccc(C#N)cc4-c4nncn4C)cc(C4CC4)n2)C3)C1 | ≤ 200 nM
CO[C@@H](C)CNCc1ccc2c(c1)C(=O)N(c1cc(-c3ccc(C#N)cc3-c3nncn3C)cc(C3CC3)n1)C2 | ≤ 200 nM
CCNc1cc(-c2ccc(C#N)cc2-c2nncn2C)cc(N2Cc3c(cc(CNC4CCCC4=O)cc3C(F)(F)F)C2=O)n1 (stereo not drawn) | ≤ 200 nM
Cn1cnnc1-c1cc(F)ccc1-c1cc(C2CC2)nc(N2Cc3ccc(CNCC(C)(C)O)cc3C2=O)c1 | ≤ 200 nM
CCOc1cc(-c2ccc(F)cc2-c2nncn2C)cc(N2Cc3ccc(CNCC4(O)CCC4)cc3C2=O)n1 | ≤ 200 nM
CCNc1cc(-c2c(-c3nncn3C)cnn2C)cc(N2Cc3c(cc(CNCCOCCOCCOCCNC(=O)CCc4ccc5n4[B-](F)(F)[N+]4=C(C)C=C(C)C4=C5)cc3C(F)(F)F)C2=O)n1 | 10000 to 50000 nM
